molecular target: CYP3A4 (Homo sapiens, UniProt P08684); test: Inhibition of CYP3A4 in human liver microsomes at 10 uM relative to control; type: ADME, Microsome
Sequence (P08684 whole entry): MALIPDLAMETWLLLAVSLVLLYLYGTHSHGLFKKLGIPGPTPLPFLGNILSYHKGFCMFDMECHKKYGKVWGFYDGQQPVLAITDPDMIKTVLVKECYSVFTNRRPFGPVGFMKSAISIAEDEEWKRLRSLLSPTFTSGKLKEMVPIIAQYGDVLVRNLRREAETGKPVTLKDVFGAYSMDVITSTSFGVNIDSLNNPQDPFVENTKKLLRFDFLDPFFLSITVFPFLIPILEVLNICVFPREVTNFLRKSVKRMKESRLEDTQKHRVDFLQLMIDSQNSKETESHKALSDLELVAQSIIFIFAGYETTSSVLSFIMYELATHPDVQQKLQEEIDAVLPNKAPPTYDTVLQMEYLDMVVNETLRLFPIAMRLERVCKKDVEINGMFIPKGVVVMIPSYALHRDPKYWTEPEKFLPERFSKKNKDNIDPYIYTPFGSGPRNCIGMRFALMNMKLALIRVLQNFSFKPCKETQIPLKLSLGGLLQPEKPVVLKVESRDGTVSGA
Metric: inhibition at 10 µM (%)
Give the value in % but do not write % after it.

Fill blank: measured inhibition at 10 µM of the compound COC(=O)C1CCN(Cc2coc(-c3ccc(C(F)(F)F)cc3)n2)CC1 is ____.
2.1

----------
Recorded fold change (FC), one value per entry.
test system: HepG2; experiment: Induction of glucose consumption in starved human HepG2 cells assessed as fold increase in activity at 20 uM incubated for 24 hrs relative to control; assay type: functional
Write the number on its own, no unit after it.

In [3]: df
Out[3]:
                                   compound  quantitative_result
0       COc1ccc(-c2nc(CN3CCC(CO)CC3)co2)cc1                 1.05
1           OCC1CCN(Cc2coc(-c3ccccc3)n2)CC1                 1.36
2  OCC1CCN(Cc2coc(-c3cccc(C(F)(F)F)c3)n2)CC1                  1.4
3     FC(F)(F)c1ccc(-c2nc(CN3CCOCC3)co2)cc1                 1.52

Fill blank: measured fold change (FC) of the compound COCC1CCN(Cc2coc(-c3ccc(C(F)(F)F)cc3)n2)CC1 is ____.
1.2

Fill blank: measured fold change (FC) of the compound OCC1CCN(Cc2coc(-c3ccc(C(F)(F)F)cc3)n2)CC1 is ____.
1.43

Fill blank: measured fold change (FC) of the compound OCC1CCN(Cc2coc(-c3cccc(F)c3)n2)CC1 is ____.
1.12

Fill blank: measured fold change (FC) of the compound CCOC(=O)C1CCN(Cc2coc(-c3ccc(C(F)(F)F)cc3)n2)CC1 is ____.
1.34

Fill blank: measured fold change (FC) of the compound Cc1cccc(-c2nc(CN3CCC(CO)CC3)co2)c1 is ____.
1.25

Fill blank: measured fold change (FC) of the compound COc1cccc(-c2nc(CN3CCC(CO)CC3)co2)c1 is ____.
1.27

Fill blank: measured fold change (FC) of the compound NC1CCN(Cc2coc(-c3ccc(C(F)(F)F)cc3)n2)CC1 is ____.
1.6

Fill blank: measured fold change (FC) of the compound OCC1CCN(Cc2coc(-c3ccc(Cl)cc3)n2)CC1 is ____.
1.24

Fill blank: measured fold change (FC) of the compound COC(=O)C1CCN(Cc2coc(-c3ccc(C(F)(F)F)cc3)n2)CC1 is ____.
1.6

Fill blank: measured fold change (FC) of the compound CC(=O)N1CCN(Cc2coc(-c3ccc(C(F)(F)F)cc3)n2)CC1 is ____.
1.21

Fill blank: measured fold change (FC) of the compound OC1CCCN(Cc2coc(-c3ccc(C(F)(F)F)cc3)n2)C1 (stereo not drawn) is ____.
1.49

Fill blank: measured fold change (FC) of the compound COC1CCN(Cc2coc(-c3ccc(C(F)(F)F)cc3)n2)CC1 is ____.
1.61

Fill blank: measured fold change (FC) of the compound OCC1CCN(Cc2coc(-c3ccc(F)cc3)n2)CC1 is ____.
1.27

Fill blank: measured fold change (FC) of the compound OCC1CCCN(Cc2coc(-c3ccc(C(F)(F)F)cc3)n2)C1 (stereo not drawn) is ____.
1.42

Fill blank: measured fold change (FC) of the compound OCC1CCN(Cc2coc(-c3cc(F)cc(F)c3)n2)CC1 is ____.
0.95

Fill blank: measured fold change (FC) of the compound OC1CCN(Cc2coc(-c3ccc(C(F)(F)F)cc3)n2)CC1 is ____.
1.42

Fill blank: measured fold change (FC) of the compound CN1CCN(Cc2coc(-c3ccc(C(F)(F)F)cc3)n2)CC1 is ____.
1.5

Fill blank: measured fold change (FC) of the compound CS(=O)(=O)C1CCN(Cc2coc(-c3ccc(C(F)(F)F)cc3)n2)CC1 is ____.
1.39

Fill blank: measured fold change (FC) of the compound COC1CCCN(Cc2coc(-c3ccc(C(F)(F)F)cc3)n2)C1 (stereo not drawn) is ____.
1.05

Fill blank: measured fold change (FC) of the compound CS(=O)(=O)N1CCN(Cc2coc(-c3ccc(C(F)(F)F)cc3)n2)CC1 is ____.
1.63

Fill blank: measured fold change (FC) of the compound CCOC1CCN(Cc2coc(-c3ccc(C(F)(F)F)cc3)n2)CC1 is ____.
1.42

Fill blank: measured fold change (FC) of the compound CC(C)(C)OC(=O)N1CCN(Cc2coc(-c3ccc(C(F)(F)F)cc3)n2)CC1 is ____.
1.46

Fill blank: measured fold change (FC) of the compound OCC1CCN(Cc2coc(-c3cccc(Cl)c3)n2)CC1 is ____.
1.05

Fill blank: measured fold change (FC) of the compound Cc1ccc(-c2nc(CN3CCC(CO)CC3)co2)cc1 is ____.
1.39
